B1: INTS3 (parent)
chain: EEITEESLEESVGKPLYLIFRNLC

# Variants of: B1
# test.protocol: protein stability index of a GFP-peptide fusion (GPS, HEK-293T) (PSI 1-6); higher = more stable;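 note: lentivirally expressed fusions sorted by FACS into six bins by GFP to DsRed ratio, PSI derived from sequencing read proportions per bin multiplied by bin number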
# assay.context: c terminus: a fixed tail appended
Record 1 whenever protein stability index is at 3 or higher; record -1 when lower.

[[record]]
polymer_sequence = "EEITEESLMESVGKPLYLIFRNLC [E9M]"
cat = -1


Threshold query (protein stability index >= 3) on EEITEESLEESVGKPLYMIFRNLC [L18M]
1

For EEITEESQEESVGKPLYLIFRNLC [L8Q] then?
1

Then what about the variant EEITEESLEESVGKPSYLIFRNLC [L16S] ?
1

Input EAITEESLEESVGKPLYLIFRNLC [E2A]
-1

Would you mind doing EEITEESLEEFVGKPLYLIFRNLC [S11F] as well?
-1

Same for EEITEESLEESSGKPLYLIFRNLC [V12S]
1

Follow-up item: EEITEESLEESVGKPWYLIFRNLC [L16W]
-1

And then EEISEESLEESVGKPLYLIFRNLC [T4S] , what is it?
-1

EEITEESLEESIGKPLYLIFRNLC [V12I] , same question.
-1

What do you get for EEITEEYLEESVGKPLYLIFRNLC [S7Y] ?
-1

Do the same for EEITEESLEESVGKPCYLIFRNLC [L16C] please
-1

// repeat for EEITEESLEHSVGKPLYLIFRNLC [E10H] and report
-1

Entry to check: EEDTEESLEESVGKPLYLIFRNLC [I3D]
1

Please answer likewise for EEITEESLEESVGKPLWLIFRNLC [Y17W]
-1

What about EEITEPSLEESVGKPLYLIFRNLC [E6P] ?
-1

Quick one: EEITTESLEESVGKPLYLIFRNLC [E5T]
-1
